# Tested on: SF-295
# Measurement Protocol: NCI tumour cell line growth inhibition, 48 h
Calls of active or inactive are those of the source. Rule as the data show it: active = GI50 up to about 1.1 µM and inactive = higher.
Choose the fitting class; nothing outside True = active, False = inactive is accepted.

Test call for this molecule, please: Cc1cc2nc(O)c(C(C)C(=O)c3ccc(Cl)cc3)nc2cc1C (stereo not drawn)
False

Hello, I am checking results. What call was entered for C=CCC(CCC(C)=O)(C(=O)OCC)C(=O)OCC ?
False

Kindly provide the recorded test outcome for the following molecule: C#CCN1CCN(C(=S)N/N=C(\C)c2ccccn2)CC1
True

* * *

# Tested on: SF-268
# Measurement Protocol: NCI tumour cell line growth inhibition, 48 h
Activity calls are given as the source filed them. Rule as the data show it: active = GI50 up to about 1.1 µM and inactive = higher.
Just give me one of these, please: Yes for active, No for inactive

How did this test come out for CN1CC[N+](C)=C1c1ccccc1 ?
No

Record lookup: outcome of this test for COc1ccc(-c2cc(-c3ccccc3)nc(N)c2-c2ccc3ccccc3c2)cc1 ?
No

Dear colleague, could you share the recorded outcome for O=S(=O)(Cc1ccccc1)c1nnc(S(=O)(=O)c2ccc(Cl)cc2)s1 when you have a moment?
No

How did this test come out for OC(C/C=N/Nc1ccccc1)(C(F)(F)Cl)C(F)(F)Cl ?
No

Record lookup: outcome of this test for CC(=O)NC1=C(NCc2ccc(Cl)cc2)C(=O)c2ccccc2C1=O ?
No

What classification did COC1(OC)C[C@H](C)[C@@]23O[C@]24c2cc(O)c5c(c2N[C@H]3C#C/C=C\C#C[C@]14O)C(=O)c1ccccc1C5=O end up with in this test?
Yes

* * *

# Tested on: SN12C
# Measurement Protocol: NCI tumour cell line growth inhibition, 48 h
The source made the active and inactive calls. Rule as the data show it: active = GI50 up to about 1.1 µM and inactive = higher.
Property Name: GI50

The observed GI50 for CCC1C(c2cc(OC)c(OC)c(OC)c2)c2cc3c(cc2OC1N1CCCC1)OCO3 (stereo unspecified) when tested with SN12C stands at 4.36 µM (inactive)

Record CN1CCN(c2ccc(-n3cc(C(=O)O)c(=O)c4cc(F)c(N5CCN(C)CC5)cc43)nc2)CC1 has SN12C GI50 equal to > 100 µM (inactive)

Case O=C1/C(=C/c2cccc3ccccc23)Cc2ccccc21 , SN12C, GI50 recorded as 49.5 µM (inactive)

Sample O=C1C(Cl)=C(NCCc2ccc(O)cc2)C(=O)c2c(O)ccc(O)c21 , system: SN12C. Its GI50 is > 10 µM (inactive)

The compound Cn1cnc([N+](=O)[O-])c1Sc1nncc2[nH]cnc12 , tested on SN12C, showed GI50 of > 100 µM (inactive)

Param item: COc1ccc(/C(=C\c2cc(OC)c(OC)c(OC)c2)C(=O)O)cc1 ; param system: SN12C; output GI50: 37.9 µM (inactive)

Query CNC(=O)OCc1c(CO)nc(SC)n1C on SN12C; GI50 returned: > 100 µM (inactive)

Value (GI50, SN12C) for record Cc1cc2nc(O)c(C(C)C(=O)c3ccc(Cl)cc3)nc2cc1C (stereo unspecified) = 50.7 µM (inactive)

Case CCCCCc1cc2c(cc1O)CC[C@@H]1[C@@H]2CC[C@]2(C)[C@@H](O)CC[C@@H]12 , SN12C, GI50 recorded as 16.2 µM (inactive)

Recorded GI50 for C[C@]12CCC3C4=C(CCC3C1CCC2=O)C(=O)[C@H]1O[C@H]1C4=O (stereo partly specified) on SN12C was 2.64 µM (inactive)

Per the reported SN12C data, CCO/C=N\C1=C(C#N)SC2=N/C(=C\c3ccc(OC)cc3)C(=O)N21 has GI50 of > 100 µM (inactive)

* * *

What GI50 was measured for each of the following?
# Tested on: NCI-H226
# Measurement Protocol: NCI tumour cell line growth inhibition, 48 h
Active and inactive are the calls of the source. No stated cut-off is given here; in the data, active = GI50 up to about 1.1 µM and inactive = higher.

Form field GI50, entry CCOC(=O)N1CCC2(CC1)C[C@](Sc1ccccc1)(C(C)=O)[C@H](C)O2 : > 100 µM (inactive)

Reported GI50 ( C[C@@H](CC(=O)O)OC1OC(COC(=O)C(C)(C)C)C(OC(=O)C(C)(C)C)C(OC(=O)C(C)(C)C)C1OC(=O)C(C)(C)C (stereo partly specified) ) = > 100 µM (inactive)

GI50 for COc1ccc(C[N+]23C(CC[C@H]2c2ccccc2)CC[C@H]3c2ccccc2)cc1 (stereo partly specified) is 14.1 µM (inactive)

GET /value?item= CCCCCCCCCCCCCP(=O)(O)O &field=GI50 returns > 100 µM (inactive)

Value of measured GI50 for the entry Brc1ccc2[nH]c3c(C4=NCCC4)nccc3c2c1 : 10.2 µM (inactive)

Form: molecule = O=c1[nH]nc(-c2cccc(Br)c2)[nH]1 ; GI50 = > 100 µM (inactive)

Consider COc1ccc(C(=O)O)c(Cc2ccc3ccccc3c2)c1 . Its measured GI50 is > 100 µM (inactive)

Record CCCCCc1cc2c(cc1O)CC[C@@H]1[C@@H]2CC[C@]2(C)[C@@H](O)CC[C@@H]12 , field GI50: 14.5 µM (inactive)

// GI50 value for NCCCN1CCN(c2ccccc2)CC1 : > 100 µM (inactive)

Field GI50 (entry CS/C(C#N)=C(\C#N)SC ) reads 2.55 µM (inactive)

GI50 reading for Nc1nnc(NC(=O)C2=NS(=O)(=O)c3cc(S(N)(=O)=O)c(Cl)cc3N2)[nH]1 : > 100 µM (inactive)

Short answer for O=C1C(c2c(O)[nH]c3ccc(I)cc23)=Nc2ccccc21 : GI50 was 2.55 µM (inactive)

So for COc1ccc(C(F)(F)F)cc1NC(=O)O/N=C(/Cl)C(C)C , the logged GI50 turned out to be 17.7 µM (inactive)

Entry CSc1ccc(NC(=S)NN(C)C)cc1 ; GI50 = > 10 µM (inactive)

Sure, the documented GI50 for COc1cccc(N2C(=O)CS(=O)(=O)C2c2cccc(Oc3ccccc3)c2)c1 (stereo unspecified) is 19.1 µM (inactive)

Sample COc1ccc2sc(-n3nc4ccccc4c3Nc3nc4ccc(OC)cc4s3)nc2c1 ; GI50 observed: 2.9 µM (inactive)

response.value for COC1CC(OC2C(C)OC(OC3C(C)OC(OC4C(C)OC(O[C@H]5CC[C@@]6(C)C(=CC[C@]7(O)[C@@H]6C[C@@H](OC(=O)/C=C(\C)C(C)C)[C@@]6(C)[C@]7(O)CC[C@@]6(O)C(C)=O)C5)CC4OC)CC3OC)CC2OC)OC(C)C1O (stereo partly specified) (field: GI50) = > 12.5 µM (inactive)

Looking up CC[n+]1[b-](C(C)(C)C)n(/N=C/C(C)(C)C)[b-](C(C)(C)C)[n+]1CC , I see its GI50 listed as > 100 µM (inactive)

The molecule N=C1OC(c2c[nH]c3ccc(OCc4ccccc4)cc23)C(O)=C1O (stereo unspecified) showed GI50 equal to > 100 µM (inactive)

Value of measured GI50 for the entry COc1ccc(/C(=C\c2cc(OC)c(OC)c(OC)c2)C(=O)O)cc1 : 28.1 µM (inactive)

Recorded GI50 (molecule Nc1nc2c(c(=O)[nH]1)NC(CO)CN2 (stereo unspecified) ): > 100 µM (inactive)

GI50 measured on C=CCNC(=S)N/N=C1\C(=O)N(CN2CCOCC2)c2ccc([N+](=O)[O-])cc21 = > 100 µM (inactive)

// GI50 lookup, molecule = Cc1ccc2c(c1)CC1(Cc3ccccc3C1=O)C2=O (stereo unspecified) , result: > 100 µM (inactive)

Sure, the documented GI50 for CCOC(=O)C1(C)CCC(C(C(=O)O)C(=O)O)CC1=O (stereo unspecified) is > 100 µM (inactive)

The molecule listed as Clc1ccccc1NN(Cc1ccccn1)c1ccccc1Cl shows GI50 equal to 16.2 µM (inactive)

Summary for this molecule, NS(=O)(=O)c1ccc(/N=N/c2ccc(O)cc2)cc1 : GI50 is 19.3 µM (inactive)

* * *

Kindly supply the reported GI50 values for the records listed here.
# System: HCC 2998
# Measurement Protocol: NCI tumour cell line growth inhibition, 48 h
The source made the active and inactive calls. Cut-off read from the data, not from the text of the source: active = GI50 up to about 1.1 µM and inactive = higher.

Noted for Nc1ncnc2c1ncn2C1OC(CO)C(O)C1NS(=O)(=O)c1ccccc1 (stereo not given) : its GI50 reads > 100 µM (inactive)

// GI50 value for CC(=O)c1cccc(NC2C(N)C(NC(=O)N(C)C)(C(C)O)C(C)(O)C2(O)COC(=O)c2c(C)cccc2O)c1 (stereo not given) : < 0.001 µM (active)

GI50 in this record for CCOC(=O)/C(C#N)=C(O)/C(=C\c1ccc(Br)cc1)NC(=O)c1ccccc1 : > 100 µM (inactive)

Short answer for O=C(Cn1ccnc1[N+](=O)[O-])c1ccccc1 : GI50 was > 100 µM (inactive)

Value of GI50 reported for the compound CCOC(=O)C1(C)CCC(C(C(=O)O)C(=O)O)CC1=O (stereo not given) is > 100 µM (inactive)
